System: K. pneumoniae ATCC 700603
test protocol: microbe, parasite or virus in culture
details: ATCC 700603, 18 h
Where a SMILES comes first, the peptide text is derived from it. Bridges are numbered along the chain shown (N, C = ends). [ ]: non-standard residue; d: D form. The star is where a group is joined. Hexanoyl(6-Ph) = O=C(CCCCCc1ccccc1)*; X1 = CCCCCC1CCC(C(=O)*)CC1; dDab = NCC[C@@H](N)C(=O)O; Octanoyl = CCCCCCCC(=O)*; Dab = NCC[C@H](N)C(=O)O
measured metric: MIC K. pneumoniae ATCC 700603 (µg/mL)
A number alone suffices; assume µg/mL.

Check out these entries, answers already filled in.
compound | measured result
CCCCCC1CCC(C(=O)N[C@H](C(=O)N[C@H](CCN)C(=O)N[C@H]2CCNC(=O)[C@H]([C@@H](C)O)NC(=O)[C@H](CCN)NC(=O)[C@H](CCN)NC(=O)[C@H](CC(C)C)NC(=O)[C@@H](Cc3ccccc3)NC(=O)[C@H](CCN)NC2=O)[C@@H](C)O)CC1 (stereo partly drawn) [Compound 24] (X1-T[dDab][Dab][Dab][dF]L[Dab][Dab]T; lactam 3-C) | 8
CC(C)C[C@@H]1NC(=O)[C@@H](Cc2ccccc2)NC(=O)[C@H](CCN)NC(=O)[C@@H](NC(=O)[C@@H](CCN)NC(=O)[C@@H](NC(=O)CCCCCc2ccccc2)[C@@H](C)O)CCNC(=O)[C@H]([C@@H](C)O)NC(=O)[C@H](CCN)NC(=O)[C@H](CCN)NC1=O [Compound 25] ({Hexanoyl(6-Ph)}-T[dDab][Dab][Dab][dF]L[Dab][Dab]T; lactam 3-C) | 1

Lab note: next compound to report on.
Hey, K. pneumoniae ATCC 700603 data for CCCCCCCC(=O)N[C@@H](CCN)C(=O)N[C@H](C(=O)N[C@@H](CCN)C(=O)N[C@H]1CCNC(=O)[C@H]([C@@H](C)O)NC(=O)[C@H](CCN)NC(=O)[C@H](CCN)NC(=O)[C@H](CC(C)C)NC(=O)[C@@H](Cc2ccccc2)NC(=O)[C@H](CCN)NC1=O)[C@@H](C)O [PmxB3, polymyxin B3, reference compound] (Octanoyl-[Dab]T[Dab][Dab][Dab][dF]L[Dab][Dab]T; lactam 4-C) : MIC K. pneumoniae ATCC 700603 came out at 1
